assay: Blood to plasma partitioning ratio in dog at 10 uM incubated for 30 mins by LC-MS/MS analysis; assay type: ADME, cell-free, Canis lupus familiaris; details: whole blood
# key: entry, value: blood plasma ratio at 0.5 h, 10 µM
Kindly provide the number alone.

# compound, blood plasma ratio at 0.5 h, 10 µM
data = [
    ("COc1cc(O[C@H]2C(C)(C)[C@H](NC(=O)c3ccc(N4CCC(CN5CCN(c6ccc(C(=O)N[C@H]7CCC(=O)NC7=O)c(F)c6)CC5)CC4)cc3)C2(C)C)ccc1C#N [LUXDEGALUTAMIDE]", 0.8),
]

query: Entry CCc1cc(N2C(=S)N(c3ccc(C#N)c(C(F)(F)F)c3)C(=O)C2(C)C)ccc1OCCN1CCN(CC(=O)Nc2cccc(NC3CCC(=O)NC3=O)c2)[C@H](C)C1 (some centres undefined) needs its blood plasma ratio at 0.5 h, 10 µM filled in; supply it.
result: 0.6

query: Entry N#Cc1ccc(O[C@H]2CC[C@H](NC(=O)c3ccc(N4CCC(CN5CCN(c6cc7c(cc6F)C(=O)N([C@H]6CCC(=O)NC6=O)C7=O)CC5)CC4)nn3)CC2)cc1Cl needs its blood plasma ratio at 0.5 h, 10 µM filled in; supply it.
result: 0.6

query: Entry NC(=O)c1ncc(N2CCCCC2)nc1Nc1ccc(C2CCN(C[C@@H]3CCN(c4ccc5c(c4)C(=O)N(C4CCC(=O)NC4=O)C5=O)C3)CC2)cc1 (some centres undefined) needs its blood plasma ratio at 0.5 h, 10 µM filled in; supply it.
result: 0.5

* * *

test: Intrinsic clearance in monkey hepatocytes measured per million cells at 1 uM measured for 0.5 to 120 mins by LC-MS/MS analysis; type: ADME, cell-based, Macaca mulatta, Hepatocyte; settings: rhesus monkey, time 0.5-120 min, read-out: CLH
readoutName: hepatocyte CLint at 1 µM
Report as: number unit

query: Entry CNC(=O)COc1cc2cc(Nc3nc(N4CCC(O[C@H]5C[C@H](N6CCC(c7ccc8c(c7F)CN(C7CCC(=O)NC7=O)C8=O)CC6)C5)CC4)ncc3Cl)ccc2n(C(C)C)c1=O (stereo partly drawn) needs its hepatocyte CLint at 1 µM filled in; supply it.
result: 10 µL/min/1e6 cells

query: Entry O=C1CC[C@H](N2Cc3cc(N4CCN(CC5CCN(c6ccc([C@@H]7c8ccc(O)cc8CC[C@@H]7c7ccccc7)cc6)CC5)CC4)ccc3C2=O)C(=O)N1 [VEPDEGESTRANT] needs its hepatocyte CLint at 1 µM filled in; supply it.
result: 5 µL/min/1e6 cells

query: Entry COc1cc(-c2cn(C)c(=O)c3cnc(N4CCC4)cc23)cc(OC)c1CN1CCC(CN2CCC3(CC2)CN(c2ccc4c(c2)C(=O)N([C@H]2CCC(=O)NC2=O)C4)C3)CC1 needs its hepatocyte CLint at 1 µM filled in; supply it.
result: 3 µL/min/1e6 cells

* * *

test: Apparent permeability across apical to basal side in human Caco-2 cells at 1 uM incubated for 120 mins followed by ACN addition by LC-MS/MS analysis; type: ADME, cell-based
readoutName: Papp A→B at 2 h, 1 µM

Some entries whose results are on file:
# compound, Papp A→B at 2 h, 1 µM
records = [
    ("CN1CCN([C@@H]2CCCN(c3cnc(C(N)=O)c(Nc4ccc(C5CCN(CC6CCN(c7ccc(C(=O)N[C@H]8CCC(=O)NC8=O)nc7)CC6)CC5)cc4)n3)C2)C1=O", "8.7 ×10⁻⁶ cm/s"),
    ("COc1cc(O[C@H]2C(C)(C)[C@H](NC(=O)c3ccc(N4CCC(CN5CCN(c6ccc(C(=O)N[C@H]7CCC(=O)NC7=O)c(F)c6)CC5)CC4)cc3)C2(C)C)ccc1C#N [LUXDEGALUTAMIDE]", "0.3 ×10⁻⁶ cm/s"),
    ("NC(=O)c1ncc(N2CCCCC2)nc1Nc1ccc(C2CCN(C[C@@H]3CCN(c4ccc5c(c4)C(=O)N(C4CCC(=O)NC4=O)C5=O)C3)CC2)cc1 (stereo not given in full)", "< 0.1 ×10⁻⁶ cm/s"),
]

query: Entry N#Cc1ccc(O[C@H]2CC[C@H](NC(=O)c3ccc(N4CCC(CN5CCN(c6cc7c(cc6F)C(=O)N([C@H]6CCC(=O)NC6=O)C7=O)CC5)CC4)nn3)CC2)cc1Cl needs its Papp A→B at 2 h, 1 µM filled in; supply it.
result: 0.1 ×10⁻⁶ cm/s

query: Entry CNC(=O)COc1cc2cc(Nc3nc(N4CCC(O[C@H]5C[C@H](N6CCC(c7ccc8c(c7F)CN(C7CCC(=O)NC7=O)C8=O)CC6)C5)CC4)ncc3Cl)ccc2n(C(C)C)c1=O (stereo not given in full) needs its Papp A→B at 2 h, 1 µM filled in; supply it.
result: 1.2 ×10⁻⁶ cm/s
